Answer each item with its documented pIC50.
# System Under Test: TGF-β Type I (RIT204D) receptor (Homo sapiens, UniProt P36897, T204D)
# Construct: The 6×-HIS tagged cytoplasmic kinase domain of each receptor was expressed and purified from Sf9 insect cell lysates; 6xHis
# Sequence (P36897 148-503 T204D limits assumed): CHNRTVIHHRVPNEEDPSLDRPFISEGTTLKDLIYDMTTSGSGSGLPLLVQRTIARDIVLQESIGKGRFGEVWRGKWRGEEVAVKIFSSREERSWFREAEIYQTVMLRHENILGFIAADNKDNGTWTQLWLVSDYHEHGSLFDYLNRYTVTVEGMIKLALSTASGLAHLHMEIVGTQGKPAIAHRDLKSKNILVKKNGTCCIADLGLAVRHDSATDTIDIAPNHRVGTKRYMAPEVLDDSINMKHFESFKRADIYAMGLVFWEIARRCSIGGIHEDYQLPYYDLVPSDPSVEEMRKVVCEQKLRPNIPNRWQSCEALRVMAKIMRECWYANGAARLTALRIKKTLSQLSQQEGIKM
# Protocol Details: TGF-β Receptor I (RIT204D) in vitro kinase reaction
# Run Parameters: 6×-HIS cytoplasmic kinase domain, 4 uM ATP, 30° C., 1 hr
pIC50: −log10 of the molar value.

query: What does the data say about its pIC50? Entry: `Cc1cccc(-c2nn3c(c2-c2ccc(F)cc2)CCC3)n1`
result: > 4.70

query: What does the data say about its pIC50? Entry: `CCCNC(=O)c1ccc2c(-c3c(-c4ccccn4)nn4c3CCC4)ccnc2c1`
result: > 4.70

query: What does the data say about its pIC50? Entry: `CC(=O)NCCCOc1ccc2c(-c3c(-c4ccccn4)nn4c3CCC4)ccnc2c1`
result: > 4.70

Value source: patent US7087626B2
